Examples of compounds with documented IC50 follow.
System: HTT mRNA
testMethodNotes: RT-qPCR splicing assay, HTT canonical (CJ) and alternative (AJ) junction mRNA
Format: cell-based, human
protocolConditions: Homo sapiens, 24 h, Table 3A; A673 or K562 cells, 24 h treatment; read-out: HTT CJ (IC50, decrease in CJ mRNA)

Example cases with answers are listed next.
Cn1ncc(-c2ccc(-c3ccc(N4CC[C@H](NC(C)(C)C)C4)nn3)c(O)c2)cc1=O [Compound 298]    < 0.1 µM
Cc1ncc(-c2ccc(-c3ccc(N4CC[C@](C)(NCC5CC5)C4)nn3)c(O)c2)s1 (single isomer, unassigned) [Compound 438]    < 0.1 µM
Cc1ncc(-c2cc(O)c(-c3ccc(N4CCC(CNC(C)(C)C)C4)nn3)cc2F)s1 (stereo not drawn) [Compound 333]    1 to 10 µM
CN(C1CCN(c2ccc(-c3cc(F)c(-c4cn[nH]c4)cc3O)nn2)C1)C(C)(C)C (stereo in doubt) [Compound 120]    < 0.1 µM
Cc1nc(C)c(-c2cc(O)c(-c3ccc(N4CC[C@H](NC5CCC5)C4)nn3)cc2F)s1 [Compound 386]    0.1 to 1 µM

Please look at the following compound next.
Reported IC50 for CCc1cc(-c2ccc(-c3ccc(N4CC[C@H](NC5CCC5)C4)nn3)c(O)c2)cnn1 [Compound 278] : what is it? 1 to 10 µM

---

Test system: MYB mRNA
testMethodNotes: RT-qPCR splicing assay, MYB canonical (CJ) and alternative (AJ) junction mRNA
Format: cell-based, human
protocolConditions: Homo sapiens, 24 h, Table 3B; A673 or K562 cells, 24 h treatment; read-out: MYB AJ (AC50, increase in AJ mRNA)
reportedProperty: AC50

Cn1cc2cc(-c3ccc(N4CCC(NC(C)(C)C)C4)nn3)c(O)cc2n1 (stereo not shown)    1 to 10 µM
Cc1nc2cc(O)c(-c3ccc(N4CC[C@H](N(C)C(C)(C)C)C4)nn3)cc2o1    0.1 to 1 µM
Cc1nc2cc(O)c(-c3cnc(N4CC[C@@H](NC(C)(C)C)C4)nn3)cc2o1    > 10 µM

Please look at the following compound next.
Reported AC50 for Cc1nc2cc(O)c(-c3ccc(N4CC[C@@H](NC(C)(C)C)C4)nn3)cc2o1 : what is it? 0.1 to 1 µM

---

Test system: HTT mRNA
testMethodNotes: RT-qPCR splicing assay, HTT canonical (CJ) and alternative (AJ) junction mRNA
Format: cell-based, human
protocolConditions: Homo sapiens, 24 h, Table 3B; A673 or K562 cells, 24 h treatment; read-out: HTT CJ (IC50, decrease in CJ mRNA)
reportedProperty: IC50

Example cases with answers are listed next.
Cc1nc2cc(O)c(-c3ccc(N4CC[C@H](NC(C)(C)C(C)C)C4)nn3)cc2o1 [Compound 875]    < 100 nM
CC(C)(C)NC1CCN(c2ccc(-c3cc4oc(CC#N)nc4cc3O)nn2)C1 (centres unmarked) [Compound 820]    100 to 1000 nM
Cn1cc2cc(-c3ccc(N4CCC(NC(C)(C)C)C4)nn3)c(O)cc2n1 (centres unmarked) [Compound 801]    1000 to 10000 nM
Cc1ccc2cc(-c3ccc(N4CCC(NC(C)(C)C)C4)nn3)c(O)cc2n1 (centres unmarked) [Compound 817]    > 10000 nM
Cn1ccc2cc(O)c(-c3cnc(N4CCC(NC(C)(C)C)C4)nn3)cc2c1=O (centres unmarked) [Compound 869]    > 10000 nM

Please look at the following molecule next.
Lookup: IC50 / HTT mRNA / Cc1nc2cc(O)c(-c3cnc(N4CC[C@H](N(C)C(C)(C)C)C4)nn3)cc2o1 [Compound 857] < 100 nM

---

System: MYB mRNA
testMethodNotes: RT-qPCR splicing assay, MYB canonical (CJ) and alternative (AJ) junction mRNA
Assay type: cell-based, human
protocolConditions: Homo sapiens, Table 4B; gene panel; read-out: MYB (IC50, decrease in CJ mRNA levels)
reportedProperty: IC50

Example cases with answers are listed next.
Cc1nc2cc(O)c(-c3cnc(N4CC[C@@H](N(C)C(C)(C)C)C4)nn3)cc2o1    1 to 10 µM
COc1cc2cc(-c3ccc(N4CCC(NC(C)(C)C)C4)nn3)c(O)cc2nn1 (stereo not drawn)    1 to 10 µM

Please look at the following molecule next.
Reported IC50 for Cc1ncc2cc(-c3ccc(N4CCC(NC(C)(C)C)C4)nn3)c(O)cc2n1 (stereo not drawn) : what is it? > 10 µM

---

Tested on: HTT mRNA
testMethodNotes: RT-qPCR splicing assay, HTT canonical (CJ) and alternative (AJ) junction mRNA
Type: cell-based, human
protocolConditions: Homo sapiens, 24 h, Table 3A; A673 or K562 cells, 24 h treatment; read-out: HTT CJ (IC50, decrease in CJ mRNA)
reportedProperty: IC50

Example cases with answers are listed next.
CCN(C1CCC1)[C@@H]1CCN(c2ccc(-c3ccc(-c4cnnc(OC)c4)cc3O)nn2)C1    100 to 1000 nM
COc1cc(-c2ccc(-c3ccc(N4CCC(NC5CC6(CCC6)C5)C4)nn3)c(O)c2)cnn1 (stereo not shown)    100 to 1000 nM
COc1cc(-c2ccc(-c3ccc(N4CC[C@@H](NC(C)(C)C)C4)nn3)c(O)c2)cnn1    < 100 nM

Reported IC50 for O=c1cc(-c2cc(O)c(-c3ccc(N4CC[C@H](NC5CCC5)C4)nn3)cc2F)cc[nH]1 : what is it? 100 to 1000 nM

Reported IC50 for Cc1nc(-c2cc(O)c(-c3ccc(N4CCC(NC5CCC5)C4)nn3)cc2F)cs1 (stereo not shown) : what is it? 1000 to 10000 nM

Reported IC50 for CC(=O)c1cc(-c2ccc(-c3ccc(N4CCC(NC5CCC5)C4)nn3)c(O)c2)cnn1 (stereo not shown) : what is it? > 10000 nM

Reported IC50 for COc1cc(-c2cc(O)c(-c3ccc(N4CC[C@@H](N[C@H]5C[C@@H](F)C5)C4)nn3)cc2F)cnn1 (racemic) : what is it? 100 to 1000 nM

---

Test system: Target C mRNA
testMethodNotes: RT-qPCR splicing assay panel, Target C canonical junction (CJ) mRNA
Assay type: cell-based, human
protocolConditions: Homo sapiens, canonical junction (CJ) mRNA, RT-qPCR panel, Table 4A; read-out: Target C, decrease in CJ mRNA levels, IC50
reportedProperty: IC50

Example cases with answers are listed next.
Cc1ncc(-c2cc(O)c(-c3ccc(N4CC[C@@](C)(NCC5CC5)C4)nn3)cc2F)s1 (single isomer, unassigned) [Compound 399]    < 0.1 µM
COc1cc(-c2cc(O)c(-c3ccc(N4CC[C@H](NC5(C)CCC5)C4)nn3)cc2F)cnn1 [Compound 299]    0.1 to 1 µM
COc1cc(-c2cc(O)c(-c3ccc(N4CC[C@H](NC(C)(C)C)C4)nn3)cc2F)cnn1 [Compound 211]    0.1 to 1 µM

Please look at the following compound next.
Reported IC50 for COc1cc(-c2ccc(-c3ccc(N4CC[C@](C)(NC5CCC5)C4)nn3)c(O)c2)ncn1 [Compound 365] : what is it? < 0.1 µM

---

Test system: MYB mRNA
testMethodNotes: RT-qPCR splicing assay, MYB canonical (CJ) and alternative (AJ) junction mRNA
Assay type: cell-based, human
protocolConditions: Homo sapiens, 24 h, Table 3B; A673 or K562 cells, 24 h treatment; read-out: MYB AJ (AC50, increase in AJ mRNA)
Examples of molecules with documented AC50 follow.

Reported AC50 for Cc1nc2cc(O)c(-c3ccc(N4CCC(NC(C)(C)C(C)(C)C)C4)nn3)cc2o1 (centres unmarked) : what is it? 100 to 1000 nM

Reported AC50 for Cc1nc2cc(O)c(-c3cnc(N4C[C@@H](C)N[C@@H](C5CC5)C4)nn3)cc2o1 : what is it? 1000 to 10000 nM

Reported AC50 for CC(C)(C)NC1CCN(c2ccc(-c3cc4ccncc4cc3O)nn2)C1 (centres unmarked) : what is it? 100 to 1000 nM

Reported AC50 for Cc1nc2cc(O)c(-c3cnc(N4CC[C@@H](N(C)C(C)(C)C)C4)nn3)cc2o1 : what is it? 1000 to 10000 nM

Reported AC50 for Cc1nc2c(F)c(O)c(-c3ccc(N4CC[C@H](NC(C)(C)C)C4)nn3)cc2o1 : what is it? > 10000 nM

Reported AC50 for CCC(C)(C)NC1CCN(c2ccc(-c3cc4oc(C)nc4cc3O)nn2)C1 (centres unmarked) : what is it? 1000 to 10000 nM

Reported AC50 for Cc1nc2cc(O)c(-c3ccc(N4CCC(C)(NC(C)(C)C)C4)nn3)cc2o1 (centres unmarked) : what is it? 1000 to 10000 nM

Reported AC50 for Cn1ccc2cc(O)c(-c3cnc(N4CCC(NC(C)(C)C)C4)nn3)cc2c1=O (centres unmarked) : what is it? > 10000 nM
